ASSAY_NOTES: yeast display, Sf9 membrane polyspecificity reagent, FACS + sequencing; frameworks hold sequencing errors
METRIC_NAME: polyreactivity (PSR sort gate)

Need polyreactivity (PSR sort gate), item QVQLVESGGGLVQAGGSLRLSCAASGFTFFHYAMGWYRQAPGKERELVAAINTRGSRTYYADSVKGRFTISRDNAKNTVYLQMNSLKPEDNAVYYCAAEDYWYDFDYWGQGTQVTVSS
high polyreactivity

Note, next up: QVQLVESGGGLVQAGGSLRLSCAASGITLTPYAMGWYRQAPGKERELVAAISWSGGSTYYADSVKGRFTISRDNAKNTVYLQMNSLKPEDTAVYYCAAGPGQYTVYAGTIGEYDYWGQGTQVTVSS
high polyreactivity

Note, next up: QVQLVESGGGLVQAGGSLRLSCAASGFTFRFNAMGWYIQAPGKERELVAAIRQSGGSTYYADSVKGRFTISRDNAKNTVYLQMNSLKPEDTAVYYCATRYFTGYGLRPQFYYWGQGTQVTVSS
high polyreactivity

Note, next up: QVQLVESGGGLVQAGGSLRLSCAASGSTFLTNAMGWYRQAPGKERELVVAIRTSGGSTYYADSVKGRFTISRDNAKNTVYLQMNSLKPEDTAFYYCAASYRRRRFSEYYYWGQGTQVTVSS
high polyreactivity

Origin of measurements: the nanobody polyreactivity screen of Harvey et al. (2022)
